Value source: PubChem BioAssay (NCI)

experiment: NCI Yeast Anticancer Drug Screen. Data for the rad50 strain (AID 155);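 further: 0% = growth of vehicle-only cultures of the same strain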; settings: S. cerevisiae rad50 strain growth inhibition; at 50.0 µM; hits give high values
The panel holds about 79,000 compounds, 15% with a hit somewhere; the sample as a whole holds those more often.
READOUT_TYPE: growth inhibition (%)
Give bare numbers, in %.

These solved cases illustrate the format of a correct answer.
COMPOUND	growth inhibition (%)
COc1cc(/C=C2\SC(=S)N(C=C3C(=O)NC(=O)NC3=O)C2=O)cc(OC)c1OC	7.5
CSC1(C)C(=O)Nc2cc(C(F)(F)F)ccc21 (stereo unspecified)	17.6
N#Cc1ccc2ccccc2c1	4.65
C[Si](C)(C)COC(N)=O	-5.5
O=C1c2cccc(O)c2C(=O)c2c(OC3OC(CO)C(OC4OC(CO)C(O)C(O)C4O)C(O)C3O)cccc21 (stereo unspecified)	94.2
CSc1ncnc2c1ccn2C1OC(COP(=O)(O)O)C(O)C1O (stereo unspecified)	21.8
Cc1[nH]c(=O)c(C#N)c(C)c1-c1ccccc1	16.8
CC(C)c1cc(C(C)C)c(Cc2c(C(C)C)cc(C(C)C)cc2C(C)C)c(C(C)C)c1	15
Cc1nc(-c2cc([N+](=O)[O-])cc([N+](=O)[O-])c2)oc1-c1ccccc1	-15.2
Cc1ccc(/C(O)=C/c2nc3ccc([N+](=O)[O-])cc3nc2/C=C(\O)c2ccc(C)cc2)cc1	13.8

Now for another entry.
Input line: Return value of growth inhibition for input `NC(=O)Oc1ccc(Cc2ccccc2)cc1` , no commentary.
Output line: -20.7

###

Please provide measured growth inhibition for the entries that follow.
test: NCI Yeast Anticancer Drug Screen. Data for the mec2-1 strain (AID 157); conditions: S. cerevisiae mec2-1 strain, at 50.0 µM, hits give high values
This is part of a sample that, as a whole, favours compounds with a hit. Of some 79,000 tested, about 15% had one in any assay.
One number for each entry, in %.

These solved cases illustrate the format of a correct answer.
COMPOUND	growth inhibition (%)
O=C(NN1C(=O)C(Cl)C1c1ccc([N+](=O)[O-])cc1)c1ccccc1O (stereo unspecified)	-19.2
CCCC1C(CC)C(NC)C(C#N)(C#N)C1(C#N)C#N (stereo unspecified)	38.9
CCCCCCC1CCC(OC(C)=O)CC1 (stereo unspecified)	-4
O=[N+]([O-])/C(N=Nc1ccc2ccccc2c1Br)=N/Nc1ccc2ccccc2c1Br	5.85
O=C(c1ccccc1)C1CCCCC1	-3.65

Now for another entry.
Input line: Return value of growth inhibition for input CCCCCCCCCC[N+](C)(C)CC(O)CO (stereo unspecified) , no commentary.
Output line: 7.9

###

experiment: NCI Yeast Anticancer Drug Screen. Data for the bub3 strain (AID 167); conditions: S. cerevisiae bub3 mutant strain, at 50.0 µM, hits give high values
The panel holds about 79,000 compounds, 15% with a hit somewhere; the sample as a whole holds those more often.
Please provide measured growth inhibition for the entries that follow.
Answers are plain numbers, in %.

COMPOUND	growth inhibition / %
COC(=O)CNC(=O)C1CSC(C)(C)N1C=O (stereo unspecified)	47.9
COc1cccc(NC(=O)CC(=O)Nc2cccc(OC)c2)c1	10.1
COc1ccc(Cl)c(C(=O)O)c1	6.85
Nc1nc2nc(C(=O)O)c(=S)[nH]c2c(=O)[nH]1	7.6
CC(=O)OC(OC(C)=O)c1ncccc1C(=O)OC(C)C	-8.45

Give growth inhibition for each of the items listed below.
1. CC(=O)Nc1ccc2c(c1)N(O)C(=O)C2(C)C
2. CC(C)c1cccc(C(C)C)c1NC(=O)/C(Cc1nc2ccc(Cl)cc2[nH]c1=O)=N\NC(=O)C[N+](C)(C)C
3. CCN(C=O)c1ccccc1
4. COc1cc(/C=C2\SC(=S)N(C=C3C(=O)NC(=O)NC3=O)C2=O)cc(OC)c1OC

Output line:
1. 5.5
2. 26.9
3. 5.95
4. 7

Give growth inhibition for each of the items listed below.
1. O=C(NC(C(=O)O)c1ccccc1)c1ccc([N+](=O)[O-])cc1 (stereo unspecified)
2. CCCCC1c2c([nH]c3ccccc23)C2C(=O)N(c3ccc(OC)cc3)C(=O)C2C1CCC (stereo unspecified)

Output line:
[31.6, 1.6]
